assay: Solubility in water; assay type: physicochemical; details: Table 6, PEGylated PA peptides

structure_smiles_string: CC[C@H](C)[C@H](N)C(=O)N[C@@H](C)C(=O)N[C@@H](CC(C)C)C(=O)N[C@H](C(=O)N[C@@H](CC(C)C)C(=O)N[C@@H](CCC(=O)O)C(=O)N1CCC[C@H]1C(=O)N[C@H](C(=O)N[C@@H](CS)C(=O)N[C@@H](CS)C(=O)N[C@@H](CCC(N)=O)C(=O)N[C@@H](CCC(=O)O)C(=O)N[C@@H](CCCNC(=N)N)C(=O)N[C@@H](C)C(=O)N[C@@H](C)C(=O)NCCOCCOCCOCCC(=O)O)[C@@H](C)CC)[C@@H](C)CC
Solubility in water: Yes
//
structure_smiles_string: CC[C@H](C)[C@H](N)C(=O)N[C@@H](C)C(=O)N[C@@H](CC(C)C)C(=O)N[C@H](C(=O)N[C@@H](CC(C)C)C(=O)N[C@@H](CCC(=O)O)C(=O)N1CCC[C@H]1C(=O)N[C@H](C(=O)N[C@@H](CS)C(=O)N[C@@H](CS)C(=O)N[C@@H](CCC(N)=O)C(=O)N[C@@H](CCC(=O)O)C(=O)N[C@@H](CCCNC(=N)N)C(=O)N[C@@H](C)C(=O)N[C@@H](C)C(=O)NCCOCCOCCOCCOCCOCCOCCOCCOCCOCCOCCOCCOCCOCCOCCOCCOCCOCCOCCOCCOCCOCCOCCOCCOCCC(=O)O)[C@@H](C)CC)[C@@H](C)CC
Solubility in water: Yes
//
structure_smiles_string: CC[C@H](C)[C@H](N)C(=O)N[C@@H](C)C(=O)N[C@@H](CC(C)C)C(=O)N[C@H](C(=O)N[C@@H](CC(C)C)C(=O)N[C@@H](CCC(=O)O)C(=O)N1CCC[C@H]1C(=O)N[C@H](C(=O)N[C@@H](CS)C(=O)N[C@@H](CS)C(=O)N[C@@H](CCC(N)=O)C(=O)N[C@@H](CCC(=O)O)C(=O)N[C@@H](CCCNC(=N)N)C(=O)N[C@@H](C)C(=O)N[C@@H](C)C(=O)NCCOCCOCCC(=O)O)[C@@H](C)CC)[C@@H](C)CC
Solubility in water: Yes
//
structure_smiles_string: CC[C@H](C)[C@H](N)C(=O)N[C@@H](C)C(=O)N[C@@H](CC(C)C)C(=O)N[C@H](C(=O)N[C@@H](CC(C)C)C(=O)N[C@@H](CCC(=O)O)C(=O)N1CCC[C@H]1C(=O)N[C@H](C(=O)N[C@@H](CS)C(=O)N[C@@H](CS)C(=O)N[C@@H](CCC(N)=O)C(=O)N[C@@H](CCC(=O)O)C(=O)N[C@@H](CCCNC(=N)N)C(=O)N[C@@H](C)C(=O)N[C@@H](C)C(=O)NCCOCCOCCOCCOCCOCCOCCOCCOCCC(=O)O)[C@@H](C)CC)[C@@H](C)CC
Solubility in water: Yes
//
structure_smiles_string: CC[C@H](C)[C@H](N)C(=O)N[C@@H](C)C(=O)N[C@@H](CC(C)C)C(=O)N[C@H](C(=O)N[C@@H](CC(C)C)C(=O)N[C@@H](CCC(=O)O)C(=O)N1CCC[C@H]1C(=O)N[C@H](C(=O)N[C@@H](CS)C(=O)N[C@@H](CS)C(=O)N[C@@H](CCC(N)=O)C(=O)N[C@@H](CCC(=O)O)C(=O)N[C@@H](CCCNC(=N)N)C(=O)N[C@@H](C)C(=O)N[C@@H](C)C(=O)NCCOCCOCCOCCOCCC(=O)O)[C@@H](C)CC)[C@@H](C)CC
Solubility in water: Yes

These measurements were taken from patent US10005818B2.
